System: growth hormone
Test Name: Suppression of growth hormone, glucagon and insulin (arginine-stimulated, nembutal rats): GH
Format: in vivo
Run Parameters: 100 μg/kg. s.c., arginine challenge (table 5)
Experimental: Albino male rats are arranged in three groups (nine rats/group) and injected i.p. with nembutal at 50mg/kg. 15 minutes after the nembutal injection they are injected s.c. according to group with (a) test compound, typically 10-2000 μg/kg.; (b) SRIF 200 μg/kg.; or (c) physiological saline. […] Comparisons between control and experimental values are statistically evaluated by the analysis of variants method and statistical significance (p) at 0.05 or lower is used as the index of activity.
Where a SMILES comes first, the peptide text is derived from it. Bridges are numbered along the chain shown (N, C = ends). [ ]: non-standard residue; d: D form.
Test Readout: GH
Respond using a number only.

| Compound | Test Readout | Observed Measurement |
| --- | --- | --- |
| CC(C)C[C@H]1NC(=O)[C@@H](N)CSSC[C@@H](C(=O)O)NC(=O)[C@H](CO)NC(=O)[C@H]([C@@H](C)O)NC(=O)[C@H](Cc2ccccc2)NC(=O)[C@H]([C@@H](C)O)NC(=O)[C@H](CCCCN)NC(=O)[C@@H](Cc2c[nH]c3ccccc23)NC(=O)[C@H](Cc2ccccc2)NC(=O)[C@H](Cc2ccccc2)NC(=O)[C@@H](Cc2ccc(O)cc2)NC1=O [G] (H-C[dL][dY]FF[dW]KTFTSC-OH; disulfide 1-12) | GH | 29 |
| C[C@@H](O)[C@@H]1NC(=O)[C@H](Cc2ccccc2)NC(=O)[C@H]([C@@H](C)O)NC(=O)[C@H](CCCCN)NC(=O)[C@@H](Cc2c[nH]c3ccccc23)NC(=O)[C@H](Cc2ccccc2)NC(=O)[C@H](Cc2ccccc2)NC(=O)[C@@H](CCC(=O)O)NC(=O)[C@@H](Cc2ccc(O)cc2)NC(=O)[C@@H](N)CSSC[C@@H](C(=O)O)NC(=O)[C@H](CO)NC1=O [J] (H-C[dY][dE]FF[dW]KTFTSC-OH; disulfide 1-12) | GH | 128 |
| C[C@@H](O)[C@@H]1NC(=O)[C@H](Cc2ccccc2)NC(=O)[C@H]([C@@H](C)O)NC(=O)[C@H](CCCCN)NC(=O)[C@@H](Cc2c[nH]c3ccccc23)NC(=O)[C@H](Cc2ccccc2)NC(=O)[C@H](Cc2ccccc2)NC(=O)[C@@H](Cc2c[nH]c3ccccc23)NC(=O)[C@@H](CCCNC(=N)N)NC(=O)[C@@H](N)CSSC[C@@H](C(=O)O)NC(=O)[C@H](CO)NC1=O [D] (H-C[dR][dW]FF[dW]KTFTSC-OH; disulfide 1-12) | GH | 21 |

Consider the record given below.
input: Recorded GH for C[C@@H](O)[C@@H]1NC(=O)[C@H](CCCCN)NC(=O)[C@@H](Cc2c[nH]c3ccccc23)NC(=O)[C@H](Cc2ccccc2)NC(=O)[C@H](Cc2ccccc2)NC(=O)[C@@H](CCCNC(=N)N)NC(=O)[C@@H](Cc2ccc(O)cc2)NC(=O)[C@@H](N)CSSC[C@H](C(=O)O)NC(=O)[C@H](CO)NC(=O)[C@H]([C@@H](C)O)NC(=O)[C@H](Cc2ccccc2)NC1=O [F] (H-C[dY][dR]FF[dW]KTFTS[dC]-OH; disulfide 1-12) , please?
output: 11

###

Tested on: insulin
Test Name: Suppression of growth hormone, glucagon and insulin (arginine-stimulated, nembutal rats): insulin
Assay type: in vivo
Run Parameters: 100 μg/kg. s.c., arginine challenge
Method: Albino male rats are arranged in three groups (nine rats/group) and injected i.p. with nembutal at 50mg/kg. 15 minutes after the nembutal injection they are injected s.c. according to group with (a) test compound, typically 10-2000 μg/kg.; (b) SRIF 200 μg/kg.; or (c) physiological saline. […] Comparisons between control and experimental values are statistically evaluated by the analysis of variants method and statistical significance (p) at 0.05 or lower is used as the index of activity.
Where a SMILES comes first, the peptide text is derived from it. Bridges are numbered along the chain shown (N, C = ends). [ ]: non-standard residue; d: D form.
Listed here: items and their measured Insulin.
Only the number, expressed in μU/ml., is required.

input: Recorded Insulin for CC(C)C[C@H]1NC(=O)[C@@H](N)CSSC[C@@H](C(=O)O)NC(=O)[C@H](CO)NC(=O)[C@H]([C@@H](C)O)NC(=O)[C@H](Cc2ccccc2)NC(=O)[C@H]([C@@H](C)O)NC(=O)[C@H](CCCCN)NC(=O)[C@@H](Cc2c[nH]c3ccccc23)NC(=O)[C@H](Cc2ccccc2)NC(=O)[C@H](Cc2ccccc2)NC(=O)[C@@H](Cc2ccc(O)cc2)NC1=O [G] (H-C[dL][dY]FF[dW]KTFTSC-OH; disulfide 1-12) , please?
output: 218

input: Recorded Insulin for C[C@@H](O)[C@@H]1NC(=O)[C@H](Cc2ccccc2)NC(=O)[C@H]([C@@H](C)O)NC(=O)[C@H](CCCCN)NC(=O)[C@@H](Cc2c[nH]c3ccccc23)NC(=O)[C@H](Cc2ccccc2)NC(=O)[C@H](Cc2ccccc2)NC(=O)[C@@H](Cc2c[nH]c3ccccc23)NC(=O)[C@@H](CCCNC(=N)N)NC(=O)[C@@H](N)CSSC[C@@H](C(=O)O)NC(=O)[C@H](CO)NC1=O [D] (H-C[dR][dW]FF[dW]KTFTSC-OH; disulfide 1-12) , please?
output: 35

input: Recorded Insulin for C[C@@H](O)[C@@H]1NC(=O)[C@H](Cc2ccccc2)NC(=O)[C@H]([C@@H](C)O)NC(=O)[C@H](CCCCN)NC(=O)[C@@H](Cc2c[nH]c3ccccc23)NC(=O)[C@H](Cc2ccccc2)NC(=O)[C@H](Cc2ccccc2)NC(=O)[C@@H](Cc2c[nH]c3ccccc23)NC(=O)[C@@H](Cc2ccc(O)cc2)NC(=O)[C@@H](N)CSSC[C@@H](C(=O)O)NC(=O)[C@H](CO)NC1=O [B] (H-C[dY][dW]FF[dW]KTFTSC-OH; disulfide 1-12) , please?
output: 170

input: Recorded Insulin for C[C@@H](O)[C@@H]1NC(=O)[C@H](Cc2ccccc2)NC(=O)[C@H]([C@@H](C)O)NC(=O)[C@H](CCCCN)NC(=O)[C@@H](Cc2c[nH]c3ccccc23)NC(=O)[C@H](Cc2ccccc2)NC(=O)[C@H](Cc2ccccc2)NC(=O)[C@@H](CCC(=O)O)NC(=O)[C@@H](Cc2ccc(O)cc2)NC(=O)[C@@H](N)CSSC[C@@H](C(=O)O)NC(=O)[C@H](CO)NC1=O [J] (H-C[dY][dE]FF[dW]KTFTSC-OH; disulfide 1-12) , please?
output: 263

input: Recorded Insulin for C[C@@H](O)[C@@H]1NC(=O)[C@H](CCCCN)NC(=O)[C@@H](Cc2c[nH]c3ccccc23)NC(=O)[C@H](Cc2ccccc2)NC(=O)[C@H](Cc2ccccc2)NC(=O)[C@@H](CCCNC(=N)N)NC(=O)[C@@H](Cc2ccc(O)cc2)NC(=O)[C@@H](N)CSSC[C@H](C(=O)O)NC(=O)[C@H](CO)NC(=O)[C@H]([C@@H](C)O)NC(=O)[C@H](Cc2ccccc2)NC1=O [F] (H-C[dY][dR]FF[dW]KTFTS[dC]-OH; disulfide 1-12) , please?
output: 103

Data origin: patent US4122077A
